// read-out pIC50, gathered for Cysteinyl leukotriene receptor 1 (Cavia porcellus, UniProt Q2NNR5) from published studies
Value format note: pIC50 is -log10 of concentration (mol/L); just state the number.

Lookup: Requested read-out pIC50, target or system Cysteinyl leukotriene receptor 1 (Cavia porcellus, UniProt Q2NNR5), entry O=C(Cc1ccccc1C(=O)O)Nc1cccc(/C=C/c2nc(C3CC3)cs2)c1
Found: 8.52

Lookup: Requested read-out pIC50, target or system Cysteinyl leukotriene receptor 1 (Cavia porcellus, UniProt Q2NNR5), entry Cc1ccc2sc(SC3CCCc4cccnc43)nc2c1 (stereo not shown)
Found: 5.15

Lookup: Requested read-out pIC50, target or system Cysteinyl leukotriene receptor 1 (Cavia porcellus, UniProt Q2NNR5), entry O=C(Cc1ccccc1C(=O)O)Nc1cccc(/C=C/c2nc(C3CCC3)cs2)c1
Found: 8.52

Lookup: Requested read-out pIC50, target or system Cysteinyl leukotriene receptor 1 (Cavia porcellus, UniProt Q2NNR5), entry O=C(O)c1ccc(Sc2cccc(OCc3ccc4ccccc4n3)c2)cc1
Found: 5.80

Lookup: Requested read-out pIC50, target or system Cysteinyl leukotriene receptor 1 (Cavia porcellus, UniProt Q2NNR5), entry O=C(O)Cc1ccc(Sc2ccc(OCc3ccc4ccccc4n3)cc2)cc1
Found: 5.64

Lookup: Requested read-out pIC50, target or system Cysteinyl leukotriene receptor 1 (Cavia porcellus, UniProt Q2NNR5), entry CCN(CC)C(=O)COC(=O)COc1ccc(C(=O)Nc2ccccc2Sc2ccccc2-c2nnn[nH]2)cc1
Found: 4.74

Lookup: Requested read-out pIC50, target or system Cysteinyl leukotriene receptor 1 (Cavia porcellus, UniProt Q2NNR5), entry O=C(O)Cc1ccccc1Sc1ccc(OCc2ccc3ccccc3n2)cc1
Found: 6.22

Lookup: Requested read-out pIC50, target or system Cysteinyl leukotriene receptor 1 (Cavia porcellus, UniProt Q2NNR5), entry CCOc1ccc2nc(SC3CCCc4cccnc43)sc2c1 (stereo not shown)
Found: 5.05

Lookup: Requested read-out pIC50, target or system Cysteinyl leukotriene receptor 1 (Cavia porcellus, UniProt Q2NNR5), entry O=C(O)c1ccccc1Sc1cccc(OCc2ccc3cc(Cl)ccc3n2)c1
Found: 7.00

Lookup: Requested read-out pIC50, target or system Cysteinyl leukotriene receptor 1 (Cavia porcellus, UniProt Q2NNR5), entry CCCc1c(SCCCOc2ccc(C(C)=O)c(OCCCC(=O)O)c2CCC)ccc(C(C)=O)c1O
Found: 5.20

Lookup: Requested read-out pIC50, target or system Cysteinyl leukotriene receptor 1 (Cavia porcellus, UniProt Q2NNR5), entry CCCC/C=C/COc1ccc(C(=O)Nc2ccccc2Sc2ccccc2-c2nnn[nH]2)cc1
Found: 7.66

Lookup: Requested read-out pIC50, target or system Cysteinyl leukotriene receptor 1 (Cavia porcellus, UniProt Q2NNR5), entry c1cnc2c(c1)CCCC2Sc1cccc2ccccc12 (stereo not shown)
Found: 4.28

Lookup: Requested read-out pIC50, target or system Cysteinyl leukotriene receptor 1 (Cavia porcellus, UniProt Q2NNR5), entry Clc1cc2nc(SC3CCCc4cccnc43)sc2cc1Cl (stereo not shown)
Found: 4.00

Lookup: Requested read-out pIC50, target or system Cysteinyl leukotriene receptor 1 (Cavia porcellus, UniProt Q2NNR5), entry O=C(O)c1ccccc1Sc1ccc(OCCN2CCN(Cc3ccc(Cl)cc3)CC2)cc1
Found: 3.92

Lookup: Requested read-out pIC50, target or system Cysteinyl leukotriene receptor 1 (Cavia porcellus, UniProt Q2NNR5), entry O=C(O)Cc1ccccc1Sc1ccc(OCc2ccc3cc(Cl)ccc3n2)cc1
Found: 6.00

Lookup: Requested read-out pIC50, target or system Cysteinyl leukotriene receptor 1 (Cavia porcellus, UniProt Q2NNR5), entry O=C(O)c1ccc(Sc2ccc(OCc3ccc4ccccc4n3)cc2)cc1
Found: 6.51

Lookup: Requested read-out pIC50, target or system Cysteinyl leukotriene receptor 1 (Cavia porcellus, UniProt Q2NNR5), entry O=C(O)Cc1ccccc1Sc1cccc(OCc2ccc3cc(Cl)ccc3n2)c1
Found: 5.94

Lookup: Requested read-out pIC50, target or system Cysteinyl leukotriene receptor 1 (Cavia porcellus, UniProt Q2NNR5), entry Clc1ccc2nc(SC3CCCc4cccnc43)[nH]c2c1 (stereo not shown)
Found: 5.20

Lookup: Requested read-out pIC50, target or system Cysteinyl leukotriene receptor 1 (Cavia porcellus, UniProt Q2NNR5), entry Clc1ccc2nc(SC3CCCc4cccnc43)sc2c1 (stereo not shown)
Found: 5.05

Lookup: Requested read-out pIC50, target or system Cysteinyl leukotriene receptor 1 (Cavia porcellus, UniProt Q2NNR5), entry Clc1ccc2sc(SC3CCCc4cccnc43)nc2c1 (stereo not shown)
Found: 4.00

Lookup: Requested read-out pIC50, target or system Cysteinyl leukotriene receptor 1 (Cavia porcellus, UniProt Q2NNR5), entry CCSc1ccc2nc(SC3CCCc4cccnc43)sc2c1 (stereo not shown)
Found: 5.77

Lookup: Requested read-out pIC50, target or system Cysteinyl leukotriene receptor 1 (Cavia porcellus, UniProt Q2NNR5), entry CCCCCCOc1ccc(C(=O)Nc2ccccc2Sc2ccccc2-c2nnn[nH]2)cc1
Found: 6.74

Lookup: Requested read-out pIC50, target or system Cysteinyl leukotriene receptor 1 (Cavia porcellus, UniProt Q2NNR5), entry CC(C)c1csc(/C=C/c2cccc(NC(=O)Cc3cccc(CC(=O)O)c3)c2)n1
Found: 6.00

Lookup: Requested read-out pIC50, target or system Cysteinyl leukotriene receptor 1 (Cavia porcellus, UniProt Q2NNR5), entry CCCc1c(OCCOc2ccc(Sc3ccc(C(=O)O)cc3)cc2)ccc(C(C)=O)c1O
Found: 4.97

Lookup: Requested read-out pIC50, target or system Cysteinyl leukotriene receptor 1 (Cavia porcellus, UniProt Q2NNR5), entry O=C(O)c1ccccc1Sc1ccc(OCCCN2CCN(Cc3ccc(Cl)cc3)CC2)cc1
Found: 4.39

Lookup: Requested read-out pIC50, target or system Cysteinyl leukotriene receptor 1 (Cavia porcellus, UniProt Q2NNR5), entry CC(C)c1csc(/C=C/c2cccc(NC(=O)Cc3ccccc3CC(=O)O)c2)n1
Found: 6.00

Lookup: Requested read-out pIC50, target or system Cysteinyl leukotriene receptor 1 (Cavia porcellus, UniProt Q2NNR5), entry CCCc1c(OCCOc2cccc(Sc3ccc(C(=O)O)cc3)c2)ccc(C(C)=O)c1O
Found: 4.58

Lookup: Requested read-out pIC50, target or system Cysteinyl leukotriene receptor 1 (Cavia porcellus, UniProt Q2NNR5), entry COC(=O)Cc1ccc2oc(SC3CCCc4cccnc43)nc2c1 (stereo not shown)
Found: 4.92

Lookup: Requested read-out pIC50, target or system Cysteinyl leukotriene receptor 1 (Cavia porcellus, UniProt Q2NNR5), entry O=C(Nc1ccccc1Sc1ccccc1-c1nnn[nH]1)c1ccc(OCCCCc2ccccc2)cc1
Found: 7.45

Lookup: Requested read-out pIC50, target or system Cysteinyl leukotriene receptor 1 (Cavia porcellus, UniProt Q2NNR5), entry CCCc1c(OCCCOc2cccc(Sc3ccccc3C(=O)O)c2)ccc(C(C)=O)c1O
Found: 5.39
